- study system: Carbonic anhydrase 1 (Homo sapiens, UniProt P00915)
- Sequence (P00915 whole entry): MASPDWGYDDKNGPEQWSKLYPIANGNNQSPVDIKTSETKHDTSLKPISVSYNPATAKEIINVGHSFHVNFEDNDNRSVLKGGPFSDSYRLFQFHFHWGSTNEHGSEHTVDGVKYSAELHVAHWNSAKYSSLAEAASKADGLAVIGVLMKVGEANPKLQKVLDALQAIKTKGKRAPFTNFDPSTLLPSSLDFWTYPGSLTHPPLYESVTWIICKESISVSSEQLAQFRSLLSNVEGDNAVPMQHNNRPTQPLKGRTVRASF
- assay protocol: Inhibition of human recombinant carbonic anhydrase 1 preincubated with enzyme for 1 hr prior to testing by phenol red-based stopped-flow CO2 hydration assay
outcome measure: Ki (nM)
Numbers only, in nM.

COCCOP(=O)(Oc1ccc(S(N)(=O)=O)cc1)c1ccccc1 (racemic) = 780
C#CCO[P@@](=O)(Oc1ccc(S(N)(=O)=O)cc1)c1ccccc1 = 365
COP(=O)(Oc1ccc(S(N)(=O)=O)cc1)c1ccccc1 (racemic) = 495
CCSP(=O)(Oc1ccc(S(N)(=O)=O)cc1)c1ccccc1 (racemic) = 727
CCN(CC)P(=O)(Oc1ccc(S(N)(=O)=O)cc1)c1ccccc1 (racemic) = 521
NS(=O)(=O)c1ccc(OP(=O)(Sc2ccccc2)c2ccccc2)cc1 (racemic) = 1630
C#CCO[P@](=O)(Oc1ccc(S(N)(=O)=O)cc1)c1ccccc1 = 564
CCOP(=O)(Oc1ccc(S(N)(=O)=O)cc1)c1ccccc1 (racemic) = 398
NS(=O)(=O)c1ccc(OP(=O)(NCc2ccccc2)c2ccccc2)cc1 (racemic) = 1710
CN1CCN(P(=O)(Oc2ccc(S(N)(=O)=O)cc2)c2ccccc2)CC1 (racemic) = 391

Please state, for each entry, its recorded Ki.
1. NS(=O)(=O)c1ccc(OP(=O)(O)c2ccccc2)cc1
2. C#CCOP(=O)(Oc1ccc(S(N)(=O)=O)cc1)c1ccccc1 (racemic)
3. CC(C)OP(=O)(Oc1ccc(S(N)(=O)=O)cc1)c1ccccc1 (racemic)
4. NS(=O)(=O)c1ccc(OP(=O)(Nc2ccccc2)c2ccccc2)cc1 (racemic)
5. CCCCCCCCCCCCSP(=O)(Oc1ccc(S(N)(=O)=O)cc1)c1ccccc1 (racemic)
6. NS(=O)(=O)c1ccc(OP(=O)(Oc2ccccc2)c2ccccc2)cc1 (racemic)
7. CCCNP(=O)(Oc1ccc(S(N)(=O)=O)cc1)c1ccccc1 (racemic)
8. NS(=O)(=O)c1ccc(OP(=O)(SCc2ccccc2)c2ccccc2)cc1 (racemic)

Response line:
1: 197; 2: 415; 3: 308; 4: 818; 5: 8350; 6: 971; 7: 759; 8: 3260

====

- study system: Carbonic anhydrase 2 (Homo sapiens, UniProt P00918)
- assay protocol: Inhibition of human recombinant carbonic anhydrase 2 preincubated with enzyme for 1 hr prior to testing by phenol red-based stopped-flow CO2 hydration assay
For each entry below, report its pKi value.
One number for each entry, as −log10 of the molar value.

NS(=O)(=O)c1ccc(OP(=O)(SCc2ccccc2)c2ccccc2)cc1 (racemic) = 7.19
NS(=O)(=O)c1ccc(OP(=O)(Nc2ccccc2)c2ccccc2)cc1 (racemic) = 8.62
NS(=O)(=O)c1ccc(OP(=O)(Oc2ccc(S(N)(=O)=O)cc2)c2ccccc2)cc1 = 8.49
NS(=O)(=O)c1ccc(OP(=O)(Sc2ccccc2)c2ccccc2)cc1 (racemic) = 7.46
COP(=O)(Oc1ccc(S(N)(=O)=O)cc1)c1ccccc1 (racemic) = 7.94
CC(C)OP(=O)(Oc1ccc(S(N)(=O)=O)cc1)c1ccccc1 (racemic) = 7.89

Prompt line: Item under review: "NS(=O)(=O)c1ccc(OP(=O)(O)c2ccccc2)cc1" . Reported pKi?
Response line: 7.42

====

- study system: Carbonic anhydrase 12 (Homo sapiens)
- Sequence (O43570 whole entry): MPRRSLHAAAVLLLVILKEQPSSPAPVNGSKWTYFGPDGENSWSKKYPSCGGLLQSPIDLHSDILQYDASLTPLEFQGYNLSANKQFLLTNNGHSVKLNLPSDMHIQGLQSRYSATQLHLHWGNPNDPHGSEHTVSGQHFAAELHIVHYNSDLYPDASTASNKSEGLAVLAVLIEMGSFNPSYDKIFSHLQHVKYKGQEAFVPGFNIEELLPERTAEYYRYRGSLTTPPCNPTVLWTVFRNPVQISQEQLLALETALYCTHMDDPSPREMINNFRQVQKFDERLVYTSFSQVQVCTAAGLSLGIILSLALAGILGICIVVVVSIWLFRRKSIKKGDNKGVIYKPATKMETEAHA
- assay protocol: Inhibition of human recombinant carbonic anhydrase 12 preincubated with enzyme for 1 hr prior to testing by phenol red-based stopped-flow CO2 hydration assay
For each entry below, report its pKi value.
Give bare numbers, as −log10 of the molar value.

Examples from the recorded data:
C#CCOP(=O)(Oc1ccc(S(N)(=O)=O)cc1)c1ccccc1 (racemic) = 7.57
NP(=O)(Oc1ccc(S(N)(=O)=O)cc1)c1ccccc1 (racemic) = 7.81
CN1CCN(P(=O)(Oc2ccc(S(N)(=O)=O)cc2)c2ccccc2)CC1 (racemic) = 7.60

Please state, for each entry, its recorded pKi.
1. NS(=O)(=O)c1ccc(OP(=O)(SCc2ccccc2)c2ccccc2)cc1 (racemic)
2. C#CCO[P@](=O)(Oc1ccc(S(N)(=O)=O)cc1)c1ccccc1

Response line:
[7.67, 7.76]
